FYI, the data here is from patent US10479793B2.

Entries annotated with measured EC50
tested-target: recombinantly expressed His-tagged protein corresponding to amino acids 575-869 of human Tyk2 (Homo sapiens, UniProt P29597)
Sequence (P29597 with tags, fused parts or gaps): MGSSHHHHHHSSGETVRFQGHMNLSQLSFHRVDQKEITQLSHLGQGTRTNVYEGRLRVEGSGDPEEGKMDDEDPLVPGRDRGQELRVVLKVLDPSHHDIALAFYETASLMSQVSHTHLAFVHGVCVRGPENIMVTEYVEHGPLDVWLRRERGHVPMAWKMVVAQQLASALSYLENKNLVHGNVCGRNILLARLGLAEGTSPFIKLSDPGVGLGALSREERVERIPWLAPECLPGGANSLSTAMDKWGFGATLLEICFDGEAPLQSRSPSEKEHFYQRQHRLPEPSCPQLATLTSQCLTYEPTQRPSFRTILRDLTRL
assay-name: Probe displacement assay (scintillation proximity, tritiated probe)
experimental-context: His-tagged Tyk2 (575-869) 2.5 nM, 40 nM radiolabeled probe, 30 minutes at room temperature

{"molecule": "CNc1cc(Nc2cccnc2-n2cccn2)nn2c(C(=O)NCC(C)(C)O)cnc12", "EC50 / nM": 130}
{"molecule": "O=C(NC1CCC1)c1cnc2c(NC3CC3)cc(Nc3cc(F)cc(F)c3F)nn12", "EC50 / nM": 60}
{"molecule": "Cc1cc(C)cc(Nc2cc(NCCN(C)C)c3ncc(C(N)=O)n3n2)c1", "EC50 / nM": 80}
{"molecule": "CNc1cc(Nc2cc(C)cc(F)c2)nn2c(C(=O)N3CCC3)cnc12", "EC50 / nM": 60}
{"molecule": "CNc1cc(N2CCc3ccccc32)nn2c(C(=O)NC3CC3)cnc12", "EC50 / nM": 8.17}
{"molecule": "CNc1cc(Nc2cccc(N3CCC(O)C3=O)n2)nn2c(C(=O)NC3CC3)cnc12 (stereo not drawn)", "EC50 / nM": 3.9}
{"molecule": "CNc1cc(Nc2cccnc2C)nn2c(C(=O)NC3CC3)cnc12", "EC50 / nM": 30}
{"molecule": "CNc1nc(Nc2cc(C)cc(F)c2)nn2c(C(N)=O)cnc12", "EC50 / nM": 7.75}
{"molecule": "Cc1cc(C)cc(Nc2cc(NCC3CC3)c3ncc(C(N)=O)n3n2)c1", "EC50 / nM": 70}
